What T½ was measured for each of the following?
molecular target: T1, glucagon receptor (target of the KD / T½ of Tables 1A, 1B and 2B) (Homo sapiens (Human), UniProt P47871 26-136); test: not stated; 37° C.
T1 construct: not shown: Human Fc carrier (and any linker) of the ECD-Fc fusion
T1 sequence (P47871 26-136 limits assumed): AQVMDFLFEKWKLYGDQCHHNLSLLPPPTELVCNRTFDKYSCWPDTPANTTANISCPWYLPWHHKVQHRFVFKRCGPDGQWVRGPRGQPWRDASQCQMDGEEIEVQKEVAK
Give bare numbers, in h.

H2-A11-H3-1 (antibody, V domains shown) VH: QVQLVQSGAEVKKPGASVKVSCKASGYTFTDFSVHWVRQAPGQGLEWMGWINTEYDFTSYADDFKGRVTMTRDTSTSTVYMELSSLRSEDTAVYYCVESLYWSYGPPDYWGQGTTVTVSS VL: DIQMTQSPSSLSASVGDRVTITCRASQNIRTAVVWYQQKPGKAPKLLIYLATNRHSGVPSRFSGSGSGTDFTFTISSLQPEDIATYYCLQHWTYPFSFGGGTKLEIK : 4.19
H2-C8-H3-4 (antibody, V domains shown) VH: QVQLVQSGAEVKKPGASVKVSCKASGYTFTDFSVHWVRQAPGQGLEWMGWINTETRGTSYADDFKGRVTMTRDTSTSTVYMELSSLRSEDTAVYYCVKSRWWSYGPPDYWGQGTTVTVSS VL: DIQMTQSPSSLSASVGDRVTITCRASQNIRTAVVWYQQKPGKAPKLLIYLATNRHSGVPSRFSGSGSGTDFTFTISSLQPEDIATYYCLQHWTYPFSFGGGTKLEIK : 5.3
H2-E7-H3-3 (antibody, V domains shown) VH: QVQLVQSGAEVKKPGASVKVSCKASGYTFTDFSVHWVRQAPGQGLEWMGWYNLETDETSYADDFKGRVTMTRDTSTSTVYMELSSLRSEDTAVYYCVKSLYWSYGPPDYWGQGTTVTVSS VL: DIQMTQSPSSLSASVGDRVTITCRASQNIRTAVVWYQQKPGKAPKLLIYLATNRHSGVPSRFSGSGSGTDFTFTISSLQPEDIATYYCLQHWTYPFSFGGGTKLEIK : 14.9

Please look up its T½: H2-E7-H3-4 (antibody, V domains shown) VH: QVQLVQSGAEVKKPGASVKVSCKASGYTFTDFSVHWVRQAPGQGLEWMGWYNLETDETSYADDFKGRVTMTRDTSTSTVYMELSSLRSEDTAVYYCVKSRWWSYGPPDYWGQGTTVTVSS VL: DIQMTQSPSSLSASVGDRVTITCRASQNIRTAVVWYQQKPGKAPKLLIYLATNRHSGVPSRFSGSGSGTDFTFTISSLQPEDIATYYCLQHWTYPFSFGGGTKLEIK 7.37
